Protein target, amino acids: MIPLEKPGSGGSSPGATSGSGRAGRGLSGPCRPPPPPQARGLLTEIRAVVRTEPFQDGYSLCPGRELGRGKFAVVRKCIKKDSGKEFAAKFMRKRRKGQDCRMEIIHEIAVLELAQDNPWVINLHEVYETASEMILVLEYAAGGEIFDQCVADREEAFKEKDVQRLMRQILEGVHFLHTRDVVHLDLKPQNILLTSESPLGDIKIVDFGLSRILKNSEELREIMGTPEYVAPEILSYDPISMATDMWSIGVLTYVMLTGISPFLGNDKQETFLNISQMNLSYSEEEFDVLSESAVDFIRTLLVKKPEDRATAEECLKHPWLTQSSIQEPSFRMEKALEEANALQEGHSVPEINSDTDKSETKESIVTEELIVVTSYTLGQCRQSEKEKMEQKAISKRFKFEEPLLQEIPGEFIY
MEASURED_ATTRIBUTE: IC50

[[record]]
compound = "O=C(O)CSc1ncnc2cc(-c3cc4ccccc4s3)sc12 [Compound 11s]"
result = "5 to 9 µM"

